- Experimental System: Heat shock protein HSP90 (Homo sapiens, UniProt P07900+P08238)
- Experiment Notes: Inhibition of Hsp90 in human MCF7 cell lysates assessed as interaction with Cy3b-conjugated geldanamycin by FP assay
- Type: cell-free
- Reported Conditions: read-out: IC50
pIC50: −log10 of the molar value.

Compound | pIC50
CCC(C)NCCNc1cc(OC)cc2cccnc12 (stereo unspecified) | 5.51

====

The compounds listed here are annotated with their IC50.
- Experimental System: Heat shock protein HSP90 (Homo sapiens, UniProt P07900+P08238)
- Experiment Notes: Inhibition of Hsp90 in human MCF7 cell lysates assessed as interaction with Cy3b-conjugated geldanamycin by FP assay
- Type: cell-free
Endpoint Label: IC50

Compound | Experimental System | Result
NCCCCNc1cc(O)cc2cccnc12 | Heat shock protein HSP90 (Homo sapiens, UniProt P07900+P08238) | < 1.6 µM
COc1cc(NCCCCN)c2ncccc2c1 | Heat shock protein HSP90 (Homo sapiens, UniProt P07900+P08238) | > 50 µM
CC(C)NCCCCCNc1cc(O)cc2cccnc12 | Heat shock protein HSP90 (Homo sapiens, UniProt P07900+P08238) | 2.4 µM
CC(CCN(C)C)Nc1cc(O)cc2cccnc12 (stereo not drawn) | Heat shock protein HSP90 (Homo sapiens, UniProt P07900+P08238) | 0.8 µM
CCC(C)(C)NCCCCCNc1cc(OC)cc2cccnc12 | Heat shock protein HSP90 (Homo sapiens, UniProt P07900+P08238) | > 50 µM
CCCNCCCC(C)Nc1cc(OC)cc2c(C)ccnc12 (stereo not drawn) | Heat shock protein HSP90 (Homo sapiens, UniProt P07900+P08238) | > 50 µM
CC(C)NCCCC(C)Nc1cc(O)cc2cccnc12 (stereo not drawn) | Heat shock protein HSP90 (Homo sapiens, UniProt P07900+P08238) | < 1.6 µM
COc1cc(NCCN(C(C)C)C(C)C)c2ncccc2c1 | Heat shock protein HSP90 (Homo sapiens, UniProt P07900+P08238) | 40 µM
NCCCNc1cc(O)cc2cccnc12 | Heat shock protein HSP90 (Homo sapiens, UniProt P07900+P08238) | 7.6 µM
CCN(CC)CCCNc1cc(OC)cc2ccc(OC)nc12 | Heat shock protein HSP90 (Homo sapiens, UniProt P07900+P08238) | 14 µM
CCCCN(CCCC)CCNc1cc(OC)cc2cccnc12 | Heat shock protein HSP90 (Homo sapiens, UniProt P07900+P08238) | 40 µM
CCC(CC)NCCCNc1cc(OC)cc2cccnc12 | Heat shock protein HSP90 (Homo sapiens, UniProt P07900+P08238) | 40 µM
CCCC(C)N(CC)CCNc1cc(OC)cc2cccnc12 (stereo not drawn) | Heat shock protein HSP90 (Homo sapiens, UniProt P07900+P08238) | 8 µM

====

Collected IC50 values appear next to each entry.
- Experimental System: Heat shock protein HSP90 (Homo sapiens, UniProt P07900+P08238)
- Experiment Notes: Inhibition of Hsp90 in human MCF7 cells assessed as Her2 level after 24 hrs by Western blot
- Format: cell-based

Molecule | Experimental System | IC50 [µM]
CC(C)NCCCCCNc1cc(O)cc2cccnc12 | Heat shock protein HSP90 (Homo sapiens, UniProt P07900+P08238) | 6
COc1cc(NCCN(CC(C)C)CC(C)C)c2ncccc2c1 | Heat shock protein HSP90 (Homo sapiens, UniProt P07900+P08238) | 1.6
COc1cc(NCCCC(C)N)c2ncccc2c1.Cl.Cl (stereo unspecified) | Heat shock protein HSP90 (Homo sapiens, UniProt P07900+P08238) | 5
COc1cc(NC(C)CCCNC(C)C)c2ncccc2c1OC (stereo unspecified) | Heat shock protein HSP90 (Homo sapiens, UniProt P07900+P08238) | 25
CCC(CC)NCCCNc1cc(OC)cc2cccnc12 | Heat shock protein HSP90 (Homo sapiens, UniProt P07900+P08238) | 13
NCCCCCNc1cc(O)cc2cccnc12 | Heat shock protein HSP90 (Homo sapiens, UniProt P07900+P08238) | 20
Br.CCN(CC)CCCCCNc1cc(O)cc2cccnc12 | Heat shock protein HSP90 (Homo sapiens, UniProt P07900+P08238) | 1
CC(N)CCCCNc1cc(O)cc2cccnc12 (stereo unspecified) | Heat shock protein HSP90 (Homo sapiens, UniProt P07900+P08238) | 20
CCN(CC)CCCNc1cc(OC)c(Nc2ccccc2)c2cccnc12 | Heat shock protein HSP90 (Homo sapiens, UniProt P07900+P08238) | 25
CC(CCN(C)C)Nc1cc(O)cc2cccnc12 (stereo unspecified) | Heat shock protein HSP90 (Homo sapiens, UniProt P07900+P08238) | 30
COc1cc(NCCCCN)c2ncccc2c1 | Heat shock protein HSP90 (Homo sapiens, UniProt P07900+P08238) | 25
